# Test system: α-isomaltosylglucosaccharide-forming enzyme from Bacillus globisporus C11
# TEST: Action of α-isomaltosylglucosaccharide-forming enzyme on saccharides as substrates (TLC), enzyme of Strain C11
# Assay type: biochemical
# Design: key: −: it showed no change; +: it showed a slight reduction of the color of substrate spot and the formation of other reaction product; ++: it showed a high reduction of the color of substrate spot and the formation of other reaction product; +++: it showed a substantial disappearance of the color of substrate spot and the formation of other reaction product
# STATED_CONDITIONS: two units/g substrate, substrate 2% (w/v), 30° C., pH 6.0, 24 hours
MEASURED_QUANTITY: Enzymatic action, Enzyme of Strain C11

COMPOUND: OC[C@H]1O[C@H](O[C@H]2[C@H](O)[C@@H](O)[C@@H](OC[C@H]3OC(O)[C@H](O)[C@@H](O)[C@@H]3O)O[C@@H]2CO)[C@H](O)[C@@H](O)[C@@H]1O (some centres unmarked)
Enzymatic action, Enzyme of Strain C11: ++
//
COMPOUND: OC[C@@H](O)[C@@H](O[C@H]1O[C@H](CO)[C@@H](O)[C@H](O)[C@H]1O)[C@H](O)[C@@H](O)CO
Enzymatic action, Enzyme of Strain C11: −
//
COMPOUND: OC[C@H]1O[C@H](OC[C@H]2O[C@H](O[C@H]3[C@H](O)[C@@H](O)C(O)O[C@@H]3CO)[C@H](O)[C@@H](O)[C@@H]2O)[C@H](O)[C@@H](O)[C@@H]1O (some centres unmarked)
Enzymatic action, Enzyme of Strain C11: −
//
COMPOUND: OC[C@@H](O)[C@@H](O[C@H]1O[C@H](CO)[C@@H](O[C@H]2O[C@H](CO)[C@@H](O)[C@H](O)[C@H]2O)[C@H](O)[C@H]1O)[C@H](O)[C@@H](O)CO
Enzymatic action, Enzyme of Strain C11: +
//
COMPOUND: OC[C@H]1O[C@H](O[C@H]2O[C@H](CO)[C@@H](O)[C@H](O)[C@H]2O)[C@H](O)[C@@H](O)[C@@H]1O
Enzymatic action, Enzyme of Strain C11: −

Enzymatic action, Enzyme of Strain C11 measured on OC[C@H]1O[C@@H](O[C@H]2O[C@H](CO)[C@@H](O)[C@H](O)[C@H]2O)[C@H](O)[C@@H](O)[C@@H]1O = +

Enzymatic action, Enzyme of Strain C11 measured on OC[C@H]1O[C@H](O[C@H]2[C@H](O)[C@@H](O)[C@H](O)O[C@@H]2CO)[C@H](O)[C@@H](O)[C@@H]1O = +

###

# Test system: α-isomaltosylglucosaccharide-forming enzyme from Bacillus globisporus C9
# TEST: Action of α-isomaltosylglucosaccharide-forming enzyme on saccharides as substrates (TLC), enzyme of Strain C9
# Format: biochemical
# Parameters: key: −: it showed no change; +: it showed a slight reduction of the color of substrate spot and the formation of other reaction product; ++: it showed a high reduction of the color of substrate spot and the formation of other reaction product; +++: it showed a substantial disappearance of the color of substrate spot and the formation of other reaction product
# STATED_CONDITIONS: two units/g substrate, substrate 2% (w/v), 30° C., pH 6.0, 24 hours
# Protocol: The action of α-isomaltosylglucosaccharide-forming enzyme on saccharides as substrates was tested. First, a solution of maltose, maltotriose, maltotetraose, maltopentaose, maltohexaose, maltoheptaose, isomaltose, isomaltotriose, panose, isopanose, α,α-trehalose (may be abbreviated as “trehalose” hereinafter), kojibiose, nigerose, neotrehalose, cellobiose, gentibiose, maltitol, maltotriitol, lactose, sucrose, erlose, selaginose, maltosyl glucoside, or isomaltosyl glucoside was prepared. […]

COMPOUND: OC[C@H]1O[C@@](CO)(O[C@H]2O[C@H](CO)[C@@H](O[C@H]3O[C@H](CO)[C@@H](O)[C@H](O)[C@H]3O)[C@H](O)[C@H]2O)[C@@H](O)[C@@H]1O
Enzymatic action, Enzyme of Strain C9: +

COMPOUND: OC[C@H]1O[C@@H](OC[C@H]2OC(O)[C@H](O)[C@@H](O)[C@@H]2O)[C@H](O)[C@@H](O)[C@@H]1O (stereo partly drawn)
Enzymatic action, Enzyme of Strain C9: −

COMPOUND: OC[C@H]1O[C@@H](O[C@H]2[C@H](O)[C@@H](O)C(O)O[C@@H]2CO)[C@H](O)[C@@H](O)[C@H]1O (stereo partly drawn)
Enzymatic action, Enzyme of Strain C9: −

###

# Test system: α-isomaltosylglucosaccharide-forming enzyme from Bacillus globisporus C11
# TEST: Action of α-isomaltosylglucosaccharide-forming enzyme on saccharides as substrates (TLC), enzyme of Strain C11
# Type: biochemical
# Design: key: −: it showed no change; +: it showed a slight reduction of the color of substrate spot and the formation of other reaction product; ++: it showed a high reduction of the color of substrate spot and the formation of other reaction product; +++: it showed a substantial disappearance of the color of substrate spot and the formation of other reaction product
# STATED_CONDITIONS: two units/g substrate, substrate 2% (w/v), 30° C., pH 6.0, 24 hours
MEASURED_QUANTITY: Enzymatic action, Enzyme of Strain C11

COMPOUND: O=C[C@H](O)[C@@H](O)[C@H](O[C@@H]1O[C@H](CO)[C@@H](O)[C@H](O)[C@H]1O)[C@H](O)CO
REPORTED_VALUE: −

COMPOUND: OC[C@H]1O[C@@H](OC[C@H]2OC(O)[C@H](O)[C@@H](O)[C@@H]2O)[C@H](O)[C@@H](O)[C@@H]1O (stereo partly shown)
REPORTED_VALUE: −

COMPOUND: OC[C@H]1O[C@H](OC[C@H]2O[C@H](OC[C@H]3OC(O)[C@H](O)[C@@H](O)[C@@H]3O)[C@H](O)[C@@H](O)[C@@H]2O)[C@H](O)[C@@H](O)[C@@H]1O (stereo partly shown)
REPORTED_VALUE: −

COMPOUND: OC[C@H]1O[C@H](O[C@H]2[C@H](O)[C@@H](CO)OC(O)[C@@H]2O)[C@H](O)[C@@H](O)[C@@H]1O (stereo partly shown)
REPORTED_VALUE: +

Values compiled from patent US20080241904A1.
